system: Mast/stem cell growth factor receptor Kit (Homo sapiens), P10721 [D816V]; conditions: at 0.1 µM
Sequence (P10721 whole entry D816V): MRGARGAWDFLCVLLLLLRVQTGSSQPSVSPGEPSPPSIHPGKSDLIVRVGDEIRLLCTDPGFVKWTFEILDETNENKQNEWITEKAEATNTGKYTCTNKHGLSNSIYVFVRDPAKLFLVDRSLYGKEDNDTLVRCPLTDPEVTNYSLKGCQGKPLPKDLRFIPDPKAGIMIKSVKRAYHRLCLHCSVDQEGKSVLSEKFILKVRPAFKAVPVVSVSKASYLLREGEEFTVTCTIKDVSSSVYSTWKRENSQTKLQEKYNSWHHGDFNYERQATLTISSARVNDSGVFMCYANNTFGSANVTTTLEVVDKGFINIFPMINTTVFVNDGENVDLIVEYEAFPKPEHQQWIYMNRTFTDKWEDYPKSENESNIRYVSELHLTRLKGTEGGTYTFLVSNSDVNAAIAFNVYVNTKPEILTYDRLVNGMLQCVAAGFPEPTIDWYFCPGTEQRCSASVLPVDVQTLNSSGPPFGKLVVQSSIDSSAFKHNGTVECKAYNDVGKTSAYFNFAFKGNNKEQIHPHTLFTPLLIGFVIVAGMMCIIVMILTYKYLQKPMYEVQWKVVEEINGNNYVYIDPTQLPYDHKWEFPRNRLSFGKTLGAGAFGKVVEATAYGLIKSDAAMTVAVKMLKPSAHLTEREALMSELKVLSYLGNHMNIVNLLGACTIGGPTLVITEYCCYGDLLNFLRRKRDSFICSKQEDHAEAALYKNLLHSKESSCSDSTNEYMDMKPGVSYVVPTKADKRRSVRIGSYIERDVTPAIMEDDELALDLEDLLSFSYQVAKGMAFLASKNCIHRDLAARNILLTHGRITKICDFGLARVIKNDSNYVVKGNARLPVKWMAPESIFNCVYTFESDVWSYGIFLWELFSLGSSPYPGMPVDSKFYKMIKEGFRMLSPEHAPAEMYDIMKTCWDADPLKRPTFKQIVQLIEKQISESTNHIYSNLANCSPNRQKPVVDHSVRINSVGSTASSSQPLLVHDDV
recordedEndpoint: inhibition (%)
All answers are understood in %, so give the number only.

Q: Entry under review: `CN(C)c1cc2c(Nc3ccc4c(cnn4Cc4ccccc4)c3)ncnc2cn1` . Reported inhibition?
Ans: 4.89

Q: May I ask what inhibition has been recorded for `Cc1cc(O)cc(C)c1/C=C/c1cncc(C(=O)N(C)C)c1` ?
Ans: 0.33

Q: I would be grateful if you could share the reported inhibition for `CN(C)CCCn1c(-c2nonc2N)nc2cnccc21` .
Ans: 4.66

Q: Tell me the measured inhibition of `CCn1c(-c2nonc2N)nc2c(C#CC(C)(C)O)nc(OCCNC)cc21` , please.
Ans: 4.65

Q: Give its inhibition value. Item: `CC(C)c1ccc2c(c1)NC(=O)/C2=N/Nc1ccc(S(N)(=O)=O)cc1`
Ans: -0.12

Q: Item under review: `CN(c1ccc(NC(=O)Nc2ccc(OC(F)(F)F)cc2)cc1)c1ccnc(Nc2cccc(S(N)(=O)=O)c2)n1` . Reported inhibition?
Ans: 3.73

Q: Param item = `FC(F)(F)c1ccc(-c2nn3ncccc3c2-c2ccnc(Nc3ccc4c(c3)OCCO4)n2)cc1` ; retrieve measured inhibition.
Ans: -0.4

Q: What does the record list as inhibition for `NS(=O)(=O)c1cccc(Nc2cc(-c3ccc(F)cc3)n[nH]2)c1` ?
Ans: 2.34

Q: // lookup inhibition for `NS(=O)(=O)c1cccc(-c2cc3ccncc3cc2OCc2ccccc2)c1`
Ans: 6.43

Q: Which value of inhibition has been reported for `COc1cc(Nc2nccc(-c3cnn4ncccc34)n2)cc(OC)c1` in the records?
Ans: 1.93

Q: Dear colleague, I am looking for the recorded inhibition of the following molecule: `COc1cccc(-n2nc(C)c3c(N/N=C(\C)c4ccncc4)ncnc32)c1`
Ans: -0.3

Q: Recorded inhibition of `N#Cc1c(NC(=O)c2ccccc2F)sc2c1CCCC2` , please.
Ans: -1.25

Q: I have this molecule here, `COC(=O)c1ccc2c(c1)C(=Cc1cc(Br)c(O)c(Br)c1)C(=O)N2` , and I need its recorded inhibition.
Ans: -0.82

Q: Quick one: inhibition of `C[C@@H](Oc1cc(-n2cnc3ccc(OC[C@@H](O)CO)cc32)sc1C(N)=O)c1ccccc1Cl` ?
Ans: -3.17

Q: Returns the measured inhibition for the input molecule. Input: `CN1CCN(C(=O)c2ccc(NC(=O)Nc3ccc(N(C)c4ccnc(Nc5ccc(CS(C)(=O)=O)cc5)n4)cc3)cc2)CC1`
Ans: 1.27

Q: Suppose we examine the molecule `COc1ccc(-c2nn3ncccc3c2-c2ccnc(Nc3cccc(C(F)(F)F)c3)n2)cc1` ; what inhibition value has been reported?
Ans: 0.93

Q: Return reported inhibition; argument: `NS(=O)(=O)c1ccc(Nc2cc(-c3cccc(O)c3)n[nH]2)cc1`
Ans: 3.6

Q: For the molecule shown here, `CN(C)C(=O)O[C@H]1CN[C@H](C#Cc2cc3ncnc(Nc4ccc(OCc5cccc(F)c5)c(Cl)c4)c3s2)C1` , give the reported inhibition.
Ans: 2.35

Q: Would you mind telling me what inhibition value was observed for `c1ccc(Cc2nc3ccc(Nc4ncnc5ccccc45)cc3[nH]2)cc1` ?
Ans: 2.6

Q: Name the reported inhibition value associated with the molecule `CCS(=O)(=O)c1ccc(OC)c(Nc2nccc(N(C)c3ccc4c(C)n[nH]c4c3)n2)c1`
Ans: 6.18

###

For each record, write down the corresponding inhibition.
target: Tyrosine-protein kinase FRK (Homo sapiens); conditions: at 1 µM;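 also: reported percent inhibition is a mean value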
State just the number; it will be interpreted in %.

Q: Endpoint output: inhibition of `NS(=O)(=O)c1ccc(N/N=C2\C(=O)Nc3ccc(Cl)cc32)cc1` . Value?
Ans: 1.45

Q: Field request: inhibition | item: `COC(=O)c1cncc(/C=C/c2c(C)cc(O)cc2C)c1`
Ans: 6.54

Q: // returns reported inhibition for input `CCn1c(-c2nonc2N)nc2ccc(F)cc21`
Ans: 1.89

Q: # get_value(readout='inhibition', item= `Cc1ccc2c(-c3ccnc(Nc4cccc(C(F)(F)F)c4)n3)c(-c3ccccc3)nn2n1` )
Ans: 30.1

Q: May I ask what inhibition has been recorded for `Nc1nccc(C#Cc2cncnc2Nc2ccc(OCc3cccc(F)c3)c(Cl)c2)n1` ?
Ans: 0.85

Q: What does the data say about its inhibition? Entry: `COc1ccc(-c2nn3ncccc3c2-c2ccnc(Nc3cccc(C(F)(F)F)c3)n2)cc1`
Ans: 2.91

Q: Bench note: what inhibition did `O=S(=O)(CCOCc1ccc(-c2ccc3ncnc(Nc4ccc(OCc5cccc(F)c5)c(Cl)c4)c3c2)o1)c1ccccc1` show?
Ans: 0.79

Q: I would be grateful if you could share the reported inhibition for `COC(=O)c1ccc2c(c1)C(=Cc1cc(Br)c(O)c(Br)c1)C(=O)N2` .
Ans: 7.02

Q: Need inhibition of `NC(=O)c1cccc(Nc2nccc(Nc3cccc(F)c3)n2)c1` , thanks.
Ans: 11.8

Q: Endpoint output: inhibition of `Nc1nccc(-c2c(-c3ccc(F)cc3)ncn2CCCN2CCOCC2)n1` . Value?
Ans: 1.08

###

Provide the recorded inhibition for the entries that follow.
target: Macrophage-stimulating protein receptor (Homo sapiens); details: at 0.1 µM;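 also: reported values are the mean percent inhibition of RON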
# number only, unit % dropped from output

Q: Look up inhibition with Macrophage-stimulating protein receptor (Homo sapiens) for this molecule: `N#Cc1c(NC(=O)c2ccccc2F)sc2c1CCCC2`
Ans: -0.97

Q: Short answer please: inhibition, Macrophage-stimulating protein receptor (Homo sapiens), entry `Cc1ccc2c(-c3ccnc(Nc4cccc(C(F)(F)F)c4)n3)c(-c3ccccc3)nn2n1`
Ans: 2.85

Q: Notebook entry, Macrophage-stimulating protein receptor (Homo sapiens) assay: inhibition of `NS(=O)(=O)c1ccc(NC=C2C(=O)Nc3ccc4ncsc4c32)cc1` = ?
Ans: 10.4

###

system: Mast/stem cell growth factor receptor Kit (Homo sapiens), P10721 [T670I]; details: at 0.1 µM
Sequence (P10721 whole entry T670I): as the sequence (P10721 whole entry D816V) above, with T670I, V816D counted along it
recordedEndpoint: inhibition (%)
Express it in %; write the number only.

Q: Notebook: pull reported inhibition for Mast/stem cell growth factor receptor Kit (Homo sapiens), P10721 [T670I], entry `[O-][S+]1CCN(Cc2ccc(-c3ccc4ncnc(Nc5ccc(OCc6ccccc6)c(Cl)c5)c4c3)o2)CC1`
Ans: 4.79

Q: Enter reported inhibition observed with Mast/stem cell growth factor receptor Kit (Homo sapiens), P10721 [T670I] for `NC(=O)c1sc(-n2cnc3ccccc32)cc1OCc1ccccc1Br`
Ans: 1.31

Q: Query the reported inhibition for Mast/stem cell growth factor receptor Kit (Homo sapiens), P10721 [T670I]; item: `COc1cccc(-n2nc(C)c3c(N/N=C(\C)c4ccncc4)ncnc32)c1`
Ans: -1.32

Q: State its inhibition on Mast/stem cell growth factor receptor Kit (Homo sapiens), P10721 [T670I]: `NS(=O)(=O)c1ccc(-c2cc3ccncc3cc2OCc2ccccc2)cc1`
Ans: 2.02

Q: Notebook entry, Mast/stem cell growth factor receptor Kit (Homo sapiens), P10721 [T670I] assay: inhibition of `CN(c1ccc(NC(=O)Nc2ccc(OC(F)(F)F)cc2)cc1)c1ccnc(Nc2cccc(S(N)(=O)=O)c2)n1` = ?
Ans: 22.9

Q: I'm curious: which inhibition was measured for `Cc1ccc(NC(=O)CC2CC2)cc1-c1ccc(C(=O)NCC2CC2)cc1` tested on Mast/stem cell growth factor receptor Kit (Homo sapiens), P10721 [T670I]?
Ans: 2.39

Q: Request body: readout inhibition, system Mast/stem cell growth factor receptor Kit (Homo sapiens), P10721 [T670I], query `Cc1ccc(C(=O)NC2CC2)cc1-c1ccc2[nH]ncc2c1` . Return the value.
Ans: -2.37

Q: Return inhibition measured with Mast/stem cell growth factor receptor Kit (Homo sapiens), P10721 [T670I] given this compound: `c1ccc(Cc2nc3ccc(Nc4ncnc5ccccc45)cc3[nH]2)cc1`
Ans: 5.98

Q: Form: Entry = `COC(=O)Nc1nc2cc(Oc3ccc(NC(=O)Nc4cccc(Br)c4)cc3)ccc2[nH]1` | System = Mast/stem cell growth factor receptor Kit (Homo sapiens), P10721 [T670I] | inhibition = ____
Ans: 33

Q: // fetch Mast/stem cell growth factor receptor Kit (Homo sapiens), P10721 [T670I] inhibition for `ON=C1CCc2cc(-c3nc(C4CCNCC4)[nH]c3-c3ccncc3)ccc21`
Ans: -0.79

Q: Any idea what inhibition came out for `Cc1ccc2c(-c3ccnc(Nc4cccc(C(F)(F)F)c4)n3)c(-c3ccccc3)nn2n1` on Mast/stem cell growth factor receptor Kit (Homo sapiens), P10721 [T670I]?
Ans: 2.51

Q: Any idea what inhibition came out for `Nc1nccc(-c2c(-c3ccc(F)cc3)ncn2CCCN2CCOCC2)n1` on Mast/stem cell growth factor receptor Kit (Homo sapiens), P10721 [T670I]?
Ans: 5

Q: Lookup: inhibition / Mast/stem cell growth factor receptor Kit (Homo sapiens), P10721 [T670I] / `O=C1Nc2ccc(-c3cccnc3)cc2C1=Cc1cc(Br)c(O)c(Br)c1`
Ans: 3.51

Q: Short answer please: inhibition, Mast/stem cell growth factor receptor Kit (Homo sapiens), P10721 [T670I], entry `Cc1cc(Cl)cc2c1NC(=O)C2=NNc1ccc(S(N)(=O)=O)cc1`
Ans: 2.4

Q: Find the measured inhibition: item `COc1ccc2ncnc(Nc3ccc(OCc4ccccc4)cc3)c2c1` , target or system Mast/stem cell growth factor receptor Kit (Homo sapiens), P10721 [T670I].
Ans: 0.74

Q: What inhibition appears in the records for this compound with Mast/stem cell growth factor receptor Kit (Homo sapiens), P10721 [T670I]? `COc1cc2ncn(-c3cc(OCc4ccccc4S(C)(=O)=O)c(C#N)s3)c2cc1OC`
Ans: 3.82

Q: Report inhibition for `CN(C)C(=O)O[C@H]1CN[C@H](C#Cc2cc3ncnc(Nc4ccc(OCc5cccc(F)c5)c(Cl)c4)c3s2)C1` tested on Mast/stem cell growth factor receptor Kit (Homo sapiens), P10721 [T670I].
Ans: 1.09

Q: Which inhibition is reported with Mast/stem cell growth factor receptor Kit (Homo sapiens), P10721 [T670I] for this entry: CCCN1CCCC(c2ccc(Nc3nc(Nc4cc(F)ccc4C(N)=O)c4cc[nH]c4n3)c(OC)c2)C1 (stereo unspecified) ?
Ans: 2.47

Q: Lab request: please report inhibition under test system Mast/stem cell growth factor receptor Kit (Homo sapiens), P10721 [T670I] for `FC(F)(F)c1ccc(-c2nn3ncccc3c2-c2ccnc(Nc3ccc4c(c3)OCCO4)n2)cc1`
Ans: 0.89

Q: Notebook: pull reported inhibition for Mast/stem cell growth factor receptor Kit (Homo sapiens), P10721 [T670I], entry `CCOc1nccc2c1nc(-c1nonc1N)n2CC`
Ans: 4.03

Q: Request body: readout inhibition, system Mast/stem cell growth factor receptor Kit (Homo sapiens), P10721 [T670I], query `COc1cccc(-n2ncc3c(N/N=C/c4ccc(C)cc4)ncnc32)c1` . Return the value.
Ans: 0.52

Q: Mast/stem cell growth factor receptor Kit (Homo sapiens), P10721 [T670I] / inhibition / `Cc1nc(-c2ccccc2)n2nc(NCCCN3CCOCC3)ncc12` : value?
Ans: 1.72

Q: Enter reported inhibition observed with Mast/stem cell growth factor receptor Kit (Homo sapiens), P10721 [T670I] for `CS(=O)(=O)CCNCc1nc(-c2ccc3ncnc(Nc4ccc(OCc5cccc(C(F)(F)F)c5)cc4)c3c2)cs1`
Ans: -0.86

Q: Which inhibition is reported with Mast/stem cell growth factor receptor Kit (Homo sapiens), P10721 [T670I] for this entry: `CCn1c(-c2nonc2N)nc2c(C#CC(C)(C)O)nc(OCCNC)cc21` ?
Ans: 0.61

Q: Mast/stem cell growth factor receptor Kit (Homo sapiens), P10721 [T670I] / inhibition / `COc1cc2ncnc(Nc3ccc4c(cnn4Cc4ccccc4)c3)c2cc1OC` : value?
Ans: 2.31

Q: Param readout = inhibition; param system = Mast/stem cell growth factor receptor Kit (Homo sapiens), P10721 [T670I]; param query = `N#Cc1c(NC(=O)c2ccccc2F)sc2c1CCCC2` ; response: value
Ans: -0.75
